Cited source for all entries: patent US8536354B2

As shown below, each of these compounds has a reported pEC50 value.
- SYSTEM UNDER TEST: wild-type Drosophila melanogaster EcR (DmEcR; GAL4-EcR DEF with VP16-RXR-USP chimera) (Drosophila melanogaster, UniProt P34021)
- Sequence (P34021 with tags, fused parts or gaps limits assumed): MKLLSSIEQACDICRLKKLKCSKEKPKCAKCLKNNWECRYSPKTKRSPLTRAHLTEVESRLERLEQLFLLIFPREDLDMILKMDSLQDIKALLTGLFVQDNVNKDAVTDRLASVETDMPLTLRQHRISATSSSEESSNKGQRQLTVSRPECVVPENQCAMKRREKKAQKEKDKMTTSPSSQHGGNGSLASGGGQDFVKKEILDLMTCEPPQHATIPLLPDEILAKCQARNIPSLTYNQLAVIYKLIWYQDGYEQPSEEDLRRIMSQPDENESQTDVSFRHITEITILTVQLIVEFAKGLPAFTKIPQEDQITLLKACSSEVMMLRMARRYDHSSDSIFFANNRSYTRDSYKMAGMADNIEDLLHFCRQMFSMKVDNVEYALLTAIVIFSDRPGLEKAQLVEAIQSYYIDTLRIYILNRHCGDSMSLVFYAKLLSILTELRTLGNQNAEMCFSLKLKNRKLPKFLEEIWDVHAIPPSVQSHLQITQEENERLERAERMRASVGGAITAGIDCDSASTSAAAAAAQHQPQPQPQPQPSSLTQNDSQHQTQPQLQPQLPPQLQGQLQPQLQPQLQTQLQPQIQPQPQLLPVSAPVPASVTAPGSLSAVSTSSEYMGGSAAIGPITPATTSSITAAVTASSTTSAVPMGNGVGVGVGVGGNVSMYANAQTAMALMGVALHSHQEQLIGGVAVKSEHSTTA
- EXPERIMENTAL DETAILS: Two-hybrid gene switch assay, luciferase reporter, wild-type DmEcR, mouse NIH3T3 cells
- Type: cell-based
- TEST SETTINGS: EC50, FIG. 16, GAL4-EcR (DEF) / VP16-RXR-USP chimera
pEC50: −log10 of the molar value.

| COMPOUND | pEC50 |
| --- | --- |
| C[C@H]([C@H](O)CCC(C)(C)O)[C@H]1CC[C@@]2(O)C3=CC(=O)[C@@H]4C[C@@H](O)[C@@H](O)C[C@]4(C)[C@H]3CC[C@]12C | < 4.48 |
| CC(=O)C1CCC2(O)C3=CC(=O)C4CC(O)C(O)CC4(C)C3CCC12C (stereo not drawn) | < 4.48 |
| CC(C)(O)CC[C@H]1OC(C)(C)O[C@]1(C)[C@H]1CC[C@@]2(O)C3=CC(=O)[C@@H]4C[C@@H](O)[C@@H](O)C[C@]4(C)[C@H]3CC[C@]12C [20-hydroxyecdysone-20,22-acetonide] | ~4.92 |

###

As shown below, each of these compounds has a reported pEC50 value.
- SYSTEM UNDER TEST: wild-type Drosophila melanogaster EcR (DmEcR; GAL4-EcR DEF with VP16-RXR-USP chimera) (Drosophila melanogaster)
- EXPERIMENTAL DETAILS: Two-hybrid gene switch assay, luciferase reporter, wild-type DmEcR, mouse NIH3T3 cells
- Type: cell-based
- TEST SETTINGS: EC50, FIG. 14A/14B, GAL4-EcR(DEF) with VP16-RXR-USP chimera
pEC50: −log10 of the molar value.
MEASUREMENT TYPE: pEC50

| COMPOUND | MEASUREMENT TYPE | RESULT |
| --- | --- | --- |
| CC(C)(O)CC[C@@H](O)[C@](C)(O)[C@H]1CC[C@@]2(O)C3=C[C@H](O)[C@@H]4C[C@@H](O)[C@@H](O)C[C@]4(C)[C@H]3CC[C@]12C [Compound 6a-hydroxy-20-hydroxyecdysone] | pEC50 | < 4.48 |
| CCC(=O)OC1CC2(C)C(C(C)(O)C(O)CCC(C)(C)O)CCC2(O)C2=CC(=O)C3CC(O)C(O)CC3(C)C21 (stereo not drawn) [turkesterone-11 a -propionate] | pEC50 | < 4.48 |
| CC(C)(O)CC[C@H]1OC(C)(C)O[C@]1(C)[C@H]1CC[C@@]2(O)C3=CC(=O)[C@@H]4C[C@@H](O)[C@@H](O)C[C@]4(C)[C@H]3CC[C@]12C [20-hydroxyecdysone-20,22-acetonide] | pEC50 | < 4.48 |

###

As shown below, each of these molecules has a reported pEC50 value.
- SYSTEM UNDER TEST: wild-type Aedes aegypti EcR (AaEcR; GAL4-EcR DEF with VP16-RXR-USP chimera) (Aedes aegypti, UniProt P49880)
- Sequence (P49880 with tags, fused parts or gaps limits assumed, change not shown): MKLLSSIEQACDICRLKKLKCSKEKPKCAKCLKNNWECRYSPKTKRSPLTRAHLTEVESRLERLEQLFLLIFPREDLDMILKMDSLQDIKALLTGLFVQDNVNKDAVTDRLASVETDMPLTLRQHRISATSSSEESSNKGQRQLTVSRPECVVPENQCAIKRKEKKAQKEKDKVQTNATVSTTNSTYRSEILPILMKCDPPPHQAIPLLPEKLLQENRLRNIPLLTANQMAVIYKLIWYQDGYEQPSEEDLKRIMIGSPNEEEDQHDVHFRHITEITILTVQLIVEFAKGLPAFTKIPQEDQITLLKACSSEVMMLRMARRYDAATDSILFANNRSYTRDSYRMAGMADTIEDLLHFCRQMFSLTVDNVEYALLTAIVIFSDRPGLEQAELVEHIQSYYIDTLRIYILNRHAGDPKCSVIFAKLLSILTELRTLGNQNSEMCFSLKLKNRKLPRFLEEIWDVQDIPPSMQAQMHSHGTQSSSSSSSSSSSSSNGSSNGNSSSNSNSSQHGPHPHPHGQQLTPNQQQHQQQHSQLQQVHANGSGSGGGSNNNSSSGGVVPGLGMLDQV
- EXPERIMENTAL DETAILS: Two-hybrid gene switch assay, luciferase reporter, wild-type AaEcR, mouse NIH3T3 cells
- Assay type: cell-based
- TEST SETTINGS: EC50, FIG. 14A/14B, GAL4-EcR(DEF) with VP16-RXR-USP chimera
pEC50: −log10 of the molar value.
MEASUREMENT TYPE: pEC50

| MOLECULE | RESULT |
| --- | --- |
| C[C@H]([C@H](O)CCC(C)(C)O)[C@H]1CC[C@@]2(O)C3=CC(=O)[C@@H]4C[C@@H](O)[C@@H](O)C[C@]4(C)[C@H]3CC[C@]12C | ~4.82 |
| CCC(=O)OC1CC2(C)C(C(C)(O)C(O)CCC(C)(C)O)CCC2(O)C2=CC(=O)C3CC(O)C(O)CC3(C)C21 (stereo not drawn) [turkesterone-11 a -propionate] | ~4.82 |
| CCCCCC(=O)OC1CC2(C)C(C(C)(O)C(O)CCC(C)(C)O)CCC2(O)C2=CC(=O)C3CC(O)C(O)CC3(C)C21 (stereo not drawn) [turkesterone-11 a -hexanoate] | ~4.92 |

###

- SYSTEM UNDER TEST: wild-type Aedes aegypti EcR (AaEcR; GAL4-EcR DEF with VP16-RXR-USP chimera) (Aedes aegypti, UniProt P49880)
- EXPERIMENTAL DETAILS: Two-hybrid gene switch assay, luciferase reporter, wild-type AaEcR, mouse NIH3T3 cells
- Type: cell-based
- TEST SETTINGS: FIG. 14A/14B, GAL4-EcR(DEF) with VP16-RXR-USP chimera, read-out: EC50
pEC50: −log10 of the molar value.

| MOLECULE | pEC50 |
| --- | --- |
| CC(C)(O)CC[C@H]1OC(C)(C)O[C@]1(C)[C@H]1CC[C@@]2(O)C3=CC(=O)[C@@H]4C[C@@H](O)[C@@H](O)C[C@]4(C)[C@H]3CC[C@]12C [20-hydroxyecdysone-20,22-acetonide] | ~4.92 |
| C[C@H](CO)CC[C@@H](O)[C@](C)(O)[C@H]1CC[C@@]2(O)C3=CC(=O)[C@@H]4C[C@@H](O)[C@@H](O)C[C@]4(C)[C@H]3CC[C@]12C [(25S)-inokosterone] | ~5.40 |
| CC(C)(O)CC[C@@H](O)[C@](C)(O)[C@H]1CC[C@@]2(O)C3=C[C@H](O)[C@@H]4C[C@@H](O)[C@@H](O)C[C@]4(C)[C@H]3CC[C@]12C [Compound 6a-hydroxy-20-hydroxyecdysone] | ~4.92 |

###

- SYSTEM UNDER TEST: MsEcR (GAL4-EcR DEF with VP16-RXR-USP chimera) (Manduca sexta, UniProt P49883)
- Sequence (P49883 1-556): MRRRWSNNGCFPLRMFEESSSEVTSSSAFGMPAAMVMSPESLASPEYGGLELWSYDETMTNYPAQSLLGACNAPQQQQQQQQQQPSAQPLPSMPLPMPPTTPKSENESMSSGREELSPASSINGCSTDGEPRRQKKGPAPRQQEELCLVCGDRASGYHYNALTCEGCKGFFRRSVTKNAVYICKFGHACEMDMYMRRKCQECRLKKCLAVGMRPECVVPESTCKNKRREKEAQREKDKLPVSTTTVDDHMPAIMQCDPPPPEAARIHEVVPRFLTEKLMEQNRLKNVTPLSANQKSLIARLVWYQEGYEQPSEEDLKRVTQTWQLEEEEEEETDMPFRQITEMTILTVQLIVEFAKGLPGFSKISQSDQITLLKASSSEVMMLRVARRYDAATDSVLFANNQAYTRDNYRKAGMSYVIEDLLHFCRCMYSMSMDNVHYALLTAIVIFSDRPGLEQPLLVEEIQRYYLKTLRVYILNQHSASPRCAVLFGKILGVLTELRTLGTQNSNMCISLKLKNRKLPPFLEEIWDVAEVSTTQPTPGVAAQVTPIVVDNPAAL
- Sequence (P28702 1-533 partner): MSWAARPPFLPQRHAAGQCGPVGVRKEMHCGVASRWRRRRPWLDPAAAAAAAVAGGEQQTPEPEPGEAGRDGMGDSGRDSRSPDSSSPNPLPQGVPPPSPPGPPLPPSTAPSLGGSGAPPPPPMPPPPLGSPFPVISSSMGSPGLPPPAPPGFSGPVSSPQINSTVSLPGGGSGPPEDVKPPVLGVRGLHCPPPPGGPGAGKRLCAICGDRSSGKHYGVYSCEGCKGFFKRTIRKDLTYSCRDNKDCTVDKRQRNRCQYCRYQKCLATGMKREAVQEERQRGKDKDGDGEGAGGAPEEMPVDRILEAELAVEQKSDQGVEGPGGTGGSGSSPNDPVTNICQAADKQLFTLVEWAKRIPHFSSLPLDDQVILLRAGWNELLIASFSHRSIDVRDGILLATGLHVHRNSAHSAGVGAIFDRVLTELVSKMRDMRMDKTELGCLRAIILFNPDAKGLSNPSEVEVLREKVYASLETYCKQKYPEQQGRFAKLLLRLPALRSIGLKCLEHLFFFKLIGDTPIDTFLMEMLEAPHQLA
- EXPERIMENTAL DETAILS: Two-hybrid gene switch assay, luciferase reporter, MsEcR, mouse NIH3T3 cells
- TEST SETTINGS: EC50, FIG. 15, GAL4-EcR (DEF) / VP16-RXR-USP chimera
As shown below, each of these compounds has a reported EC50 value.
MEASUREMENT TYPE: EC50

| COMPOUND | MEASUREMENT TYPE | RESULT |
| --- | --- | --- |
| CC(C)(O)CC[C@H]1OC(C)(C)O[C@]1(C)[C@H]1CC[C@@]2(O)C3=CC(=O)[C@@H]4C[C@@H](O)[C@@H](O)C[C@]4(C)[C@H]3CC[C@]12C [20-hydroxyecdysone-20,22-acetonide] | EC50 | ~12 µM |
| CC(=O)C1CCC2(O)C3=CC(=O)C4CC(O)C(O)CC4(C)C3CCC12C (stereo not drawn) | EC50 | > 33 µM |
| C[C@H]([C@H](O)CCC(C)(C)O)[C@H]1CC[C@@]2(O)C3=CC(=O)[C@@H]4C[C@@H](O)[C@@H](O)C[C@]4(C)[C@H]3CC[C@]12C | EC50 | > 33 µM |
